inhibition at 101 µM values, listed per item
TARGET OR TEST SYSTEM: TREK-1 channel (Rattus norvegicus, UniProt Q920B6)
Construct: expressed in transfected cells; host or cells: COS7 (Korean Cell Line Bank), transient transfection with Effectene
Sequence (Q920B6 1-426): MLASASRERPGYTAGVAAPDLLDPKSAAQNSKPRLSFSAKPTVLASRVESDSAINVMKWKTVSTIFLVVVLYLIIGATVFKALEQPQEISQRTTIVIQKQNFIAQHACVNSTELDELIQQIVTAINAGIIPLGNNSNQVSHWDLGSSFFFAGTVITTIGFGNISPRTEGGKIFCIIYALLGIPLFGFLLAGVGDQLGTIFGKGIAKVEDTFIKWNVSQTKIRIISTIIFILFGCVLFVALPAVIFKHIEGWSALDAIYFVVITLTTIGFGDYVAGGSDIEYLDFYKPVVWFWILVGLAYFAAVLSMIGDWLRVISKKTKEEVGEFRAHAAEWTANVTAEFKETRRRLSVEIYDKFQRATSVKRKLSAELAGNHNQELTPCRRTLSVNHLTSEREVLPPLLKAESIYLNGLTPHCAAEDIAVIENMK
EXPERIMENT DESCRIPTION: Assay for TREK channel inhibition activity (whole cell patch clamp recording, COS7 cell transfected with GFP-rTREK-1)
Format: cell-based
TEST SETTINGS: COS-7, Table 3 (value ± spread); 101 μM [sic]; COS7 cells, GFP-rTREK-1, whole-cell patch clamp; read-out: block % at 101 μM

COMPOUND: Cc1ccc(F)cc1-n1nc(CNC(=O)CN2CCN(C[C@@H](O)COc3ccc(C(F)(F)F)cc3)CC2)cc1CC(C)C
inhibition at 101 µM: 71.4%

COMPOUND: CC(C)Cc1cc(CNC(=O)CN2CCN(C[C@@H](O)COc3ccc(C(F)(F)F)cc3)CC2)nn1-c1cc(Cl)cc(Cl)c1
inhibition at 101 µM: 76.1%

COMPOUND: Cc1ccc(CNC(=O)CN2CCN(C[C@H](O)COc3ccccc3)CC2)cc1
inhibition at 101 µM: 26.4%

COMPOUND: C=C[C@H]1C[N@@]2CC[C@H]1C[C@H]2[C@H](O)c1ccnc2ccc(OC)cc12 [quinine, reference compound]
inhibition at 101 µM: 17%

COMPOUND: Cc1ccc(OC[C@@H](O)CN2CCN(CC(=O)NCc3ccc(C(F)(F)F)cc3)CC2)cc1
inhibition at 101 µM: 25.4%

COMPOUND: O[C@@H](COc1ccc(F)cc1)CN1CCC(N2CCOCC2)CC1
inhibition at 101 µM: 16.4%

COMPOUND: Cc1ccc(F)cc1-n1nc(CNC(=O)CN2CCN(C[C@@H](O)COc3ccc(F)cc3)CC2)cc1CC(C)C
inhibition at 101 µM: 45.1%

COMPOUND: O[C@@H](COc1ccc(C(F)(F)F)cc1)CN1CCC(N2CCCCC2)CC1
inhibition at 101 µM: 36.4%

COMPOUND: O=C(CN1CCN(C[C@@H](O)COc2ccccc2)CC1)NCc1ccccc1
inhibition at 101 µM: 0.84%

COMPOUND: CC(C)Cc1cc(CN2CCN(C[C@H](O)COc3ccc(C(F)(F)F)cc3)CC2)nn1-c1ccccc1
inhibition at 101 µM: 84.2%

COMPOUND: Cc1ccc(CNC(=O)CN2CCN(C[C@H](O)COc3ccc(C)cc3)CC2)cc1
inhibition at 101 µM: 11%

COMPOUND: Cc1ccccc1-n1nc(CNC(=O)CN2CCN(C[C@H](O)COc3ccc(F)cc3)CC2)cc1CC(C)C
inhibition at 101 µM: 69.8%

COMPOUND: O[C@@H](COc1ccc(C(F)(F)F)cc1)CN1CCC(F)(F)CC1
inhibition at 101 µM: 60.8%

COMPOUND: CC(C)c1cc(CNC(=O)CN2CCN(C[C@@H](O)COc3ccc(C(F)(F)F)cc3)CC2)nn1-c1ccccc1
inhibition at 101 µM: 55.3%

COMPOUND: CC(C)Cc1cc(CNC(=O)CN2CCN(C[C@@H](O)COc3ccc(F)cc3)CC2)nn1-c1ccc(F)cc1
inhibition at 101 µM: 18.8%

COMPOUND: CC(C)Cc1cc(CNC(=O)CN2CCN(C[C@H](O)COc3ccc(F)cc3)CC2)nn1-c1cc(Cl)cc(Cl)c1
inhibition at 101 µM: 78.1%

COMPOUND: CC(C)Cc1cc(CNC(=O)CN2CCN(C[C@H](O)COc3ccc(F)cc3)CC2)nn1-c1ccccc1
inhibition at 101 µM: 37.5%

COMPOUND: O[C@@H](COc1ccc(C(F)(F)F)cc1)CN1CCC(O)(c2ccccc2)CC1
inhibition at 101 µM: 54%

COMPOUND: O=C(CN1CCN(C[C@@H](O)COc2ccccc2)CC1)NCc1ccc(C(F)(F)F)cc1
inhibition at 101 µM: 44%

COMPOUND: Cc1ccc(OC[C@H](O)CN2CCN(CC(=O)NCc3ccccc3)CC2)cc1
inhibition at 101 µM: 4.7%

COMPOUND: O[C@@H](COc1ccc(F)cc1)CN1CCC(N2CCCCC2)CC1
inhibition at 101 µM: 16.8%

COMPOUND: CC(C)Cc1cc(CNC(=O)CN2CCN(C[C@@H](O)COc3ccc(C(F)(F)F)cc3)CC2)nn1-c1ccccc1
inhibition at 101 µM: 77.5%

COMPOUND: Cc1ccc(CNC(=O)CN2CCN(C[C@@H](O)COc3ccccc3)CC2)cc1
inhibition at 101 µM: 16.3%

COMPOUND: Cc1ccc(CNC(=O)CN2CCN(C[C@@H](O)COc3ccc(C)cc3)CC2)cc1
inhibition at 101 µM: 29.9%

COMPOUND: O[C@H](COc1ccc(F)cc1)CN1CCC(N2CCOCC2)CC1
inhibition at 101 µM: 29.6%

COMPOUND: Cc1ccc(F)cc1-n1nc(CNC(=O)CN2CCN(C[C@H](O)COc3ccc(C(F)(F)F)cc3)CC2)cc1CC(C)C
inhibition at 101 µM: 83.1%

COMPOUND: Cc1ccccc1-n1nc(CNC(=O)CN2CCN(C[C@H](O)COc3ccc(C(F)(F)F)cc3)CC2)cc1CC(C)C
inhibition at 101 µM: 51.2%

COMPOUND: Cc1ccc(OC[C@@H](O)CN2CCN(CC(=O)NCc3ccccc3)CC2)cc1
inhibition at 101 µM: 13.5%

COMPOUND: CC(C)Cc1cc(CN2CCN(C[C@@H](O)COc3ccc(C(F)(F)F)cc3)CC2)nn1-c1ccccc1
inhibition at 101 µM: 48.5%

COMPOUND: O[C@H](COc1ccc(F)cc1)CN1CCC(F)(F)CC1
inhibition at 101 µM: 23.3%

COMPOUND: CC(C)Cc1cc(CNC(=O)CN2CCN(C[C@H](O)COc3ccc(C(F)(F)F)cc3)CC2)nn1-c1ccccc1
inhibition at 101 µM: 82.1%

COMPOUND: O[C@H](COc1ccc(F)cc1)CN1CCC(O)(c2ccccc2)CC1
inhibition at 101 µM: 53.9%
